System: NCI-H460 lung
assay-overview: NCI tumour cell line growth inhibition, 48 h
Would you mind telling me the reported TGI of each entry?

query: Consider the compound Cc1ccc(S(=O)(=Nc2ccccc2)C(C(C)C)C(C)(C)Cl)cc1 (configuration not stated) . State its measured TGI.
result: 45.4 µM

query: Consider the compound O=C(Cc1ccccc1)Nc1nnc(CCSCCc2nnc(NC(=O)Cc3ccccc3)s2)s1 . State its measured TGI.
result: > 100 µM

query: Consider the compound CN(N)C(=O)NCCCl . State its measured TGI.
result: > 100 µM

query: Consider the compound COc1ccc2[nH]c(C(=O)N3CC(CCl)c4ccc([N+](=O)[O-])cc43)cc2c1 (configuration not stated) . State its measured TGI.
result: > 100 µM

query: Consider the compound Cc1cc(NC2=NCCO2)c2c(c1C)CCCC2 . State its measured TGI.
result: 63 µM

query: Consider the compound Sc1nnc(-c2ccccc2Nc2ccccc2-c2nnc(S)n2-c2ccccc2)n1-c1ccccc1 . State its measured TGI.
result: > 100 µM

query: Consider the compound O=C1c2c(c3c4ccccc4n4c3c3c2c2ccccc2n3C/C=C\C4)C(=O)N1Cc1ccccc1 . State its measured TGI.
result: > 100 µM

----------
Test system: EKVX NSCLC
assay-overview: NCI tumour cell line growth inhibition, 48 h
Would you mind telling me the reported TGI of each entry?

query: Consider the molecule CCC(=N\NC(N)=S)/C(C)=N/O . State its measured TGI.
result: > 100 µM

query: Consider the molecule O=C1c2ccccc2C(=O)N1C(=S)c1ccccc1 . State its measured TGI.
result: > 100 µM

query: Consider the molecule CCCCCCC(CCl)c1sc(-c2csc(CCNC(=O)OC(C)(C)C)n2)nc1C(=O)OC (centres undefined) . State its measured TGI.
result: > 100 µM

query: Consider the molecule Brc1cccc(C2(CCCC3(c4cccc(Br)n4)OCCO3)OCCO2)n1 . State its measured TGI.
result: > 100 µM

----------
Tested on: T-47D breast
assay-overview: NCI tumour cell line growth inhibition, 48 h
Would you mind telling me the reported TGI of each entry?
// units = µM; emit number, no label

query: Consider the compound Cc1cc(C)cc(Nc2nccc(-c3c(-c4ccc(F)cc4)ncn3C3CCNCC3)n2)c1 . State its measured TGI.
result: 3.79

query: Consider the compound N=C1N=C(N)c2cc3c(cc21)SCCSCCCSCCS3 . State its measured TGI.
result: 69.1

query: Consider the compound C=C(C)CC1=C(C(=S)NCCO[Si](C)(C)C(C)(C)C)C(OCC)(OCC)C1=O . State its measured TGI.
result: 35.4

----------
System: HT29 colon
assay-overview: NCI tumour cell line growth inhibition, 48 h
endpoint-label: TGI

query: Consider the compound O=C(Nc1ccc2ccccc2c1)Nn1cnnc1 . State its measured TGI.
result: > 100 µM

query: Consider the compound COc1cc(NCC(C#N)C#N)ccc1N=Nc1ccc([N+](=O)[O-])cc1 . State its measured TGI.
result: > 100 µM

query: Consider the compound CCCNC(=O)c1cc2ccccc2cc1C(=O)OC . State its measured TGI.
result: > 100 µM

query: Consider the compound COc1cc(C(=O)/C=C/c2c(-c3ccc(F)cc3)nc3sccn23)cc(OC)c1OC . State its measured TGI.
result: 6.11 µM

query: Consider the compound COc1ccc(C2C(C(=O)O)=C(COC(C)=O)Oc3cc4c(cc32)OCO4)cc1 (configuration not stated) . State its measured TGI.
result: > 100 µM

query: Consider the compound Oc1[nH]c2ccccc2c1N=NC(=S)N1CCCCCC1 . State its measured TGI.
result: 10.8 µM

query: Consider the compound CC(=O)NC1C(OCc2ccccc2)OC(CO)C(O)C1OCC(=O)NC(C)C(=O)NC(CCC(=O)NCCCCCC(=O)Nc1ccc2c(c1)CN1C(=O)c3ccccc3C1=N2)C(N)=O (configuration not stated) . State its measured TGI.
result: > 100 µM

query: Consider the compound Cc1ccc([N+](=O)[O-])cc1S(=O)(=O)Nc1ccc(C2=NN(c3ccc([N+](=O)[O-])cc3[N+](=O)[O-])C(c3ccccc3O)C2)cc1 (configuration not stated) . State its measured TGI.
result: > 100 µM

query: Consider the compound COC(=O)C[C@H](COCc1ccccc1)NC(=O)C[C@H](COCc1ccccc1)NC(=O)C[C@H](COCc1ccccc1)NC(=O)OC(C)(C)C . State its measured TGI.
result: > 100 µM

query: Consider the compound CCCCNC(=S)/N=C/c1c(O)c2ccccc2oc1=O . State its measured TGI.
result: > 100 µM

query: Consider the compound N/C(=N\OC(=O)NC(Cl)=C(Cl)Cl)c1cc(C(F)(F)F)cc(C(F)(F)F)c1 . State its measured TGI.
result: 34.4 µM

query: Consider the compound NNC(=O)CC(=O)Nc1ccccc1F . State its measured TGI.
result: > 100 µM

----------
Tested on: K-562 leukemia
assay-overview: NCI tumour cell line growth inhibition, 48 h
endpoint-label: TGI

query: State, for K-562 leukemia, measured TGI of the molecule listed here: CC(=O)O[C@H]1CC[C@@]2(C)C(=CC[C@@H]3[C@@H]2CC[C@]2(C)c4nc(N)c(C#N)cc4C[C@@H]32)C1
result: > 100 µM

query: State, for K-562 leukemia, measured TGI of the molecule listed here: O=S(=O)(NC(=S)Nc1ccccc1)c1ccc(N2N=C3c4ccccc4CC3C2c2ccc(Cl)cc2)cc1 (stereo not drawn)
result: 42.1 µM

query: State, for K-562 leukemia, measured TGI of the molecule listed here: C=C1C(=O)[C@]23[C@H](O)[C@H]1CC[C@H]2[C@@]12CO[C@@]3(O)C[C@@H]1C(C)(C)CC[C@@H]2O
result: > 25 µM

query: State, for K-562 leukemia, measured TGI of the molecule listed here: Cc1ccccc1NC(=S)N=Nc1c(O)[nH]c2ccccc12
result: > 100 µM

query: State, for K-562 leukemia, measured TGI of the molecule listed here: O=C(c1ccc(Cl)cc1)N(Cc1cccnc1)C(=S)N(Cc1cccnc1)C(=O)c1ccc(Cl)cc1
result: > 100 µM

query: State, for K-562 leukemia, measured TGI of the molecule listed here: CC(=O)NC1C(OCc2ccccc2)OC(CO)C(O)C1OCC(=O)NC(C)C(=O)NC(CCC(=O)NCCCCCC(=O)Nc1ccc2c(c1)CN1C(=O)c3ccccc3C1=N2)C(N)=O (stereo not drawn)
result: > 100 µM

query: State, for K-562 leukemia, measured TGI of the molecule listed here: Cc1cc(-c2ccccc2)c(C)n1Cc1ccc(Cl)cc1
result: > 100 µM

query: State, for K-562 leukemia, measured TGI of the molecule listed here: CCN(CC)c1ccc(/C=C/C(=O)c2cccc(NS(C)(=O)=O)c2)cc1
result: > 100 µM

----------
System: 786-0 renal
assay-overview: NCI tumour cell line growth inhibition, 48 h
Would you mind telling me the reported TGI of each entry?

query: Consider the compound COc1cc(C2[C@H]3C(=O)N(c4ccc(Cc5ccc(N6C(=O)[C@@H]7ON(c8ccccc8)C(c8cc(OC)c(OC)c(OC)c8)[C@@H]7C6=O)cc5)cc4)C(=O)[C@H]3ON2c2ccccc2)cc(OC)c1OC (stereo partly specified) . State its measured TGI.
result: > 100 µM

query: Consider the compound Cc1nc2ccccc2c(=O)n1NC(=O)Cc1ccccc1 . State its measured TGI.
result: > 100 µM

query: Consider the compound CCCCNC(=S)/N=C/c1c(O)c2ccccc2oc1=O . State its measured TGI.
result: > 100 µM

query: Consider the compound CN(C)CCCNC(=O)c1cc(NC(=O)c2cc(NC(=O)c3cc(NC(=O)CCCn4ccc(CO)c4CO)cn3C)cn2C)cn1C . State its measured TGI.
result: > 100 µM

query: Consider the compound CC1NOC(NS(=O)(=O)c2ccc(N=Nc3c(O)c(C(=O)O)cc4ccccc34)cc2)C1C (stereo unspecified) . State its measured TGI.
result: > 100 µM

query: Consider the compound O=C(NN=C1CCCCC1)Nc1ccccc1Cl . State its measured TGI.
result: > 100 µM

query: Consider the compound CCOC(=O)CNC(SC)=C(C#N)C#N . State its measured TGI.
result: > 100 µM

query: Consider the compound CC(C)[C@@H](C(=O)O[C@@H]1/C=C/C(=O)O[C@@H](C)CCC/C=C/[C@@H]2C[C@H](O)C[C@H]21)[N+](C)(C)C . State its measured TGI.
result: > 100 µM

query: Consider the compound CN(N)C(=O)NCCCl . State its measured TGI.
result: > 100 µM

query: Consider the compound Clc1ccccc1-c1nc2ccccc2[nH]1 . State its measured TGI.
result: > 100 µM

query: Consider the compound COC(=O)c1ccc(C)cc1C1CN=NC12Cc1cc(C)c(C)cc1C2=O (stereo unspecified) . State its measured TGI.
result: > 100 µM

----------
System: ACHN renal
assay-overview: NCI tumour cell line growth inhibition, 48 h
Would you mind telling me the reported TGI of each entry?

query: Consider the molecule NNC(=O)CC(=O)Nc1ccccc1F . State its measured TGI.
result: > 100 µM

query: Consider the molecule C[C@@H]1CN(Cc2ccc(/C=C/c3n[nH]c4ccc5nc(-c6cn[nH]c6C(F)(F)F)c6c(c5c34)CCCC6)cc2)C[C@H](C)O1 . State its measured TGI.
result: 13.7 µM

query: Consider the molecule [N-]=[N+]=C1CNC(=O)NC1=O . State its measured TGI.
result: > 100 µM

query: Consider the molecule CCC(=N\NC(N)=S)/C(C)=N/O . State its measured TGI.
result: > 100 µM

query: Consider the molecule COc1ccc(-c2cc(-c3ccccc3)c(C#N)c(=O)[nH]2)cc1 . State its measured TGI.
result: > 100 µM

query: Consider the molecule CN(N)C(=O)NCCCl . State its measured TGI.
result: > 100 µM

query: Consider the molecule COc1cc(N(C)C)ccc1/C=c1/c2ccccc2n2c1cc(-c1ccccc1)[n+]2C . State its measured TGI.
result: 1.31 µM

query: Consider the molecule Cc1ccc(O)c(Cc2nc3ccccc3nc2-c2cccc(Br)c2)c1 . State its measured TGI.
result: > 100 µM

query: Consider the molecule CC(/C=N/NC1=NCCCCN1)=N\NC1=NCCCCN1 . State its measured TGI.
result: > 100 µM

query: Consider the molecule O=C1C=CC2(O[C@@H](Cc3ccccc3)[C@H](Cc3ccccc3)O2)C(SC(=O)c2ccccc2)C1 (some centres undefined) . State its measured TGI.
result: 2.43 µM

query: Consider the molecule O=C1c2ccccc2C(=O)N1C(=S)c1ccccc1 . State its measured TGI.
result: > 100 µM

query: Consider the molecule CSC(=S)N(C)NC(=O)c1cccc(C(=O)NN(C)C(=S)SC)n1 . State its measured TGI.
result: > 100 µM

query: Consider the molecule CCOC(=O)c1c(-c2[nH]c(C(=O)OCc3ccccc3)c(C)c2C(=O)OCC)[nH]c(C(=O)OCc2ccccc2)c1C . State its measured TGI.
result: > 100 µM

query: Consider the molecule COc1cc(Nc2ncc3c(n2)-c2ccc(Cl)cc2C(c2c(F)cccc2OC)=NC3)ccc1C(=O)O . State its measured TGI.
result: 55.1 µM

query: Consider the molecule Cc1cn(C2C=CC(=O)C(C)O2)c(=O)[nH]c1=O (centres undefined) . State its measured TGI.
result: 31.3 µM

query: Consider the molecule CCOC(=O)Nc1nc2c(F)c(F)c(F)cc2s1 . State its measured TGI.
result: > 100 µM

query: Consider the molecule O=C1CCC2=C(CCC2)N1CCc1ccc2c(c1)OCO2 . State its measured TGI.
result: > 100 µM

query: Consider the molecule COc1cc(C)c(C(=O)/C=C/c2cc(OC)c(O)c(OC)c2)cc1O . State its measured TGI.
result: > 100 µM

query: Consider the molecule O=C1C[C@@H](c2ccccc2)NCCCCN(O)CCCN1 . State its measured TGI.
result: > 100 µM
